target: H1N1 A/California/07/2009 hemagglutinin ectodomain, biotinylated HA0 (influenza A virus A/California/07/2009 …, biotin on the BirA site); assay: SPR
Positions of bridges follow the written chain, without caps; N, C: chain ends. Non-standard residues stand in square brackets, D forms with d. No end group written: not given here.
measuredAttribute: Kd (µM)
Answers are plain numbers, in µM.

In the examples that follow, each entry is paired with its recorded Kd.
| binder | Kd / µM |
| --- | --- |
| CYRDPLGVAGEMC (also: cyclic peptide, ring closure not given here) [cyclic peptide CP13] | 12 |
| PGVSLYEDPLGVAGGMGVY (also: cyclic peptide, ring closure not given here) [cyclic peptide CP4] | 0.12 |
| CLYRDPLGVAGGMGC (disulfide 1-15) [cyclic peptide CP8] | 0.33 |

Working through the 4 binders below one at a time, give Kd for each.
1. LYEDPLGVAGGMG (non-template-based cyclic peptide (direct head-to-tail cyclization)) [cyclic peptide CP14]
2. PGLYEDPLGVAGGMG (also: cyclic peptide, ring closure not given here) [cyclic peptide CP6]
3. PPLYEDPLGVAGGMG (also: one Pro of the Pro-Pro template is D, which not given here, cyclic peptide, ring closure not given here) [cyclic peptide CP3]
4. P[dP]SLYEDPLGVAGGMGV (also: cyclic peptide, ring closure not given here) [cyclic peptide CP2]

1.07
1.91
2.39
7.28
